Biological target: Cholinesterase (Equus caballus, UniProt P81908)
Sequence (P81908 whole entry): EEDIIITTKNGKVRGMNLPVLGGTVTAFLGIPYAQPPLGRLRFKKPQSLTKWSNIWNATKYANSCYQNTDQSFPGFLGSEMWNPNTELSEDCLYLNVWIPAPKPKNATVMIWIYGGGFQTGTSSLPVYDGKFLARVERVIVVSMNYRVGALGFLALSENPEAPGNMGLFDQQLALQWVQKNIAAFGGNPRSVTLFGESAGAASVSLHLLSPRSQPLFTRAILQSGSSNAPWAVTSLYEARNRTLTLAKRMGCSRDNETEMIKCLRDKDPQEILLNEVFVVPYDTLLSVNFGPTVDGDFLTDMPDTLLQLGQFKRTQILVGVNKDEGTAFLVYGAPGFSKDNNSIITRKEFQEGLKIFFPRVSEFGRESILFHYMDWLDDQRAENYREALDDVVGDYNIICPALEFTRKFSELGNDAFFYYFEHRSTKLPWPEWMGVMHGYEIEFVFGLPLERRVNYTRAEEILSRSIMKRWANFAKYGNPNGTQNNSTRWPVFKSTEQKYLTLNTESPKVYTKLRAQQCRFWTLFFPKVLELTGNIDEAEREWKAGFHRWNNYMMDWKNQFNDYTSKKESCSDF
Experiment: Inhibition of equine serum BChE using butyrylthiocholine iodide as substrate incubated for 30 mins followed by substrate addition and measured for 20 mins by Ellman's method
Parameter: IC50 (nM)

chemical_structure=C#CCOc1ccc(-c2cc(-c3ccc(OCCN4CCOCC4)cc3)nc(N)n2)cc1 experimental_system="Cholinesterase (Equus caballus, UniProt P81908)" parameter=IC50 recorded_measurement=666

====

Assay: in vitro
Conditions: human, SH-SY5Y cells
Description: Neurotoxicity against human SH-SY5Y cells assessed as inhibition of cell viability incubated for 24 hrs by MTT assay
Parameter: IC50 at 24 h (µM)

chemical_structure=c1cnc(Nc2nnc(-c3cccc4ccccc34)o2)nc1 parameter="IC50 at 24 h" recorded_measurement=79.4

====

Experiment: Antioxidant activity assessed as DPPH radical scavenging activity at 20 uM after 30 mins under dark condition by DPPH assay relative to control
Assay type: functional
Please mark TRUE if the recorded inhibition is equal to or greater than 50%, and FALSE if it falls below.

compound=Brc1cccc(-c2nnc(Nc3ncccn3)o2)c1 group_label=FALSE
compound="COc1cc2c(cc1OC)C(=O)C(CC1CCN(Cc3ccccc3)CC1)C2 (configuration not stated)" group_label=FALSE
compound=O=C1O[C@H]([C@@H](O)CO)C(O)=C1O group_label=TRUE
compound=COc1ccc(-c2nnc(Nc3ncccn3)o2)cc1 group_label=FALSE
compound=Oc1ccc(-c2nnc(Nc3ncccn3)o2)cc1 group_label=TRUE
compound=COc1cc(-c2nnc(Nc3ncccn3)o2)cc(OC)c1OC group_label=TRUE
compound=Brc1ccc(-c2nnc(Nc3ncccn3)o2)cc1 group_label=FALSE
compound=Fc1ccc(-c2nnc(Nc3ncccn3)o2)cc1 group_label=FALSE
compound=Clc1ccc(-c2nnc(Nc3ncccn3)o2)cc1 group_label=FALSE
compound=O=[N+]([O-])c1ccccc1-c1nnc(Nc2ncccn2)o1 group_label=TRUE
compound=c1cnc(Nc2nnc(-c3cccc4ccccc34)o2)nc1 group_label=TRUE
compound=Oc1ccccc1-c1nnc(Nc2ncccn2)o1 group_label=TRUE
compound=Cc1ccc(-c2nnc(Nc3ncccn3)o2)cc1 group_label=FALSE
compound=Clc1ccccc1-c1nnc(Nc2ncccn2)o1 group_label=FALSE
compound=O=[N+]([O-])c1ccc(-c2nnc(Nc3ncccn3)o2)cc1 group_label=FALSE

====

Biological target: Acetylcholinesterase (Homo sapiens, UniProt P22303)
Sequence (P22303 whole entry): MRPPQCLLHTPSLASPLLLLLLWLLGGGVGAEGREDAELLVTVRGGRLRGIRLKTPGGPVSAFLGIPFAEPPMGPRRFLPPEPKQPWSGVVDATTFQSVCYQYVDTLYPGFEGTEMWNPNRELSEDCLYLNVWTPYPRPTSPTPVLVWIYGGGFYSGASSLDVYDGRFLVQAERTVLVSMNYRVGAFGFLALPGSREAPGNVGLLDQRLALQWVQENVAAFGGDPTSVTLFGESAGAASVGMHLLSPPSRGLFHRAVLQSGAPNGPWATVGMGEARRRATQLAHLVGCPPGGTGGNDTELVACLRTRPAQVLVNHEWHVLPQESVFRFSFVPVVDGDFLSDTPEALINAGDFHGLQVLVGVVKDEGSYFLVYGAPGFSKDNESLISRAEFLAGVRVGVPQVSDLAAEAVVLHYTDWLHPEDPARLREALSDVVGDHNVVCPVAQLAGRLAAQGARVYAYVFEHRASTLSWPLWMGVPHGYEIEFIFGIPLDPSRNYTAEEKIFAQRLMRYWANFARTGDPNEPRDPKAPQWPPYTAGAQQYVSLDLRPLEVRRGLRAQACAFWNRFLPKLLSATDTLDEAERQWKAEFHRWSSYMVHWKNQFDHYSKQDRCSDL
pIC50: −log10 of the molar value.
Parameter: pIC50

chemical_structure=Brc1cccc(-c2nnc(Nc3ncccn3)o2)c1 experimental_system="Acetylcholinesterase (Homo sapiens, UniProt P22303)" recorded_measurement=5.48
chemical_structure=COc1ccc(-c2nnc(Nc3ncccn3)o2)cc1OC experimental_system="Acetylcholinesterase (Homo sapiens, UniProt P22303)" recorded_measurement=5.72
chemical_structure=O=[N+]([O-])c1ccccc1-c1nnc(Nc2ncccn2)o1 experimental_system="Acetylcholinesterase (Homo sapiens, UniProt P22303)" recorded_measurement=5.47
chemical_structure=COc1cc(-c2nnc(Nc3ncccn3)o2)cc(OC)c1OC experimental_system="Acetylcholinesterase (Homo sapiens, UniProt P22303)" recorded_measurement=5.91
chemical_structure=c1ccc(-c2nnc(Nc3ncccn3)o2)cc1 experimental_system="Acetylcholinesterase (Homo sapiens, UniProt P22303)" recorded_measurement=5.69
chemical_structure=COc1ccc(-c2nnc(Nc3ncccn3)o2)cc1 experimental_system="Acetylcholinesterase (Homo sapiens, UniProt P22303)" recorded_measurement=5.81
